system: HT-144 (Melanoma); assay: Bliss excess, mean over the matrix (fraction); higher = more synergy
property: Bliss excess
Write no unit; give the number alone.

Summary: COc1cc2c(cc1OCCCCCOc1cc3c(cc1OC)C(=O)N1C=C(C)C[C@H]1C=N3)N=C[C@@H]1CC(C)=CN1C2=O [SG3199] + O=C(c1cc(Cc2n[nH]c(=O)c3ccccc23)ccc1F)N1CCN(C(=O)C2CC2)CC1 [Olaparib] (first compound max 0.001 µM, 7x7, partner max 10 µM) , HT-144 (Melanoma), Bliss excess = -0.0443

---

molecules and their reported combination Emax
tested on: NCI-H1435 (Non-Small Cell Lung Carcinoma); test: combination Emax (second highest fraction inhibited in the dose matrix, 72 h); higher = more inhibition; extreme values may be limits of the assay
Reply: number alone, nothing else.

Below, each entry is followed by its recorded combination Emax result.
{"columns": ["molecule", "testTarget", "combination Emax"],
 "data": [
  ["CN(CCO)CC[C@H](CSc1ccccc1)Nc1ccc(S(=O)(=O)NC(=O)c2ccc(N3CCC([C@@H](O)c4ccccc4-c4ccc(Cl)cc4)CC3)cc2)cc1S(=O)(=O)C(F)(F)F [AZD4320] + CCN(CCO)CCCOc1ccc2c(Nc3cc(CC(=O)Nc4cccc(F)c4)[nH]n3)ncnc2c1 [AZD2811] (first compound max 1 µM, 7x7, partner max 1 µM)", "NCI-H1435 (Non-Small Cell Lung Carcinoma)", 0.699],
  ["CN(C)CCCOc1ccc(-c2ccc3ncc4c(c3c2)n(C2CCOCC2)c(=O)n4C)cn1 [AZD0156] + C[C@@H]1COCCN1C2=NC(=NC(=C2)C3(CC3)[S@](=N)(=O)C)C4=C5C=CNC5=NC=C4 [AZD6738] (first compound max 1 µM, 7x7, partner max 10 µM)", "NCI-H1435 (Non-Small Cell Lung Carcinoma)", 0.158]
]}

Then this molecule:
get_value(item= CC1(C)CCC(CN2CCN(c3ccc(C(=O)NS(=O)(=O)c4ccc(NCC5CCOCC5)c([N+](=O)[O-])c4)c(Oc4cnc5[nH]ccc5c4)c3)CC2)=C(c2ccc(Cl)cc2)C1 [Venetoclax] + CCN(CCO)CCCOc1ccc2c(Nc3cc(CC(=O)Nc4cccc(F)c4)[nH]n3)ncnc2c1 [AZD2811] (first compound max 1 µM, 7x7, partner max 1 µM) , readout=combination Emax) returns 0.161

---

system: BC-1 (B-Cell Non-Hodgkin's Lymphoma); experiment: combination Emax (second highest fraction inhibited in the dose matrix, 72 h); higher = more inhibition; extreme values may be limits of the assay
# combination Emax per entry

Use these answered entries as a reference point.
{"columns": ["molecule", "combination Emax"],
 "data": [
  ["O=C(c1cc(Cc2n[nH]c(=O)c3ccccc23)ccc1F)N1CCN(C(=O)C2CC2)CC1 [Olaparib] + COc1nnc2ccc(N3CCC(c4ccc(OCCN5CCN(C)C(=O)[C@H]5C)cc4)CC3)nn12 [AZD5153] (first compound max 10 µM, 7x7, partner max 1 µM)", 0.873],
  ["C=CCn1c(=O)c2cnc(Nc3ccc(N4CCN(C)CC4)cc3)nc2n1-c1cccc(C(C)(C)O)n1 [AZD1775] + Nc1ccn([C@@H]2O[C@H](CO)[C@@H](O)C2(F)F)c(=O)n1 [Gemcitabine] (first compound max 1 µM, partner max 0.3 µM)", 0.995],
  ["NC1(C(=O)N[C@@H](CCO)c2ccc(Cl)cc2)CCN(c2ncnc3[nH]ccc23)CC1 [Capivasertib] + CCN(CCO)CCCOc1ccc2c(Nc3cc(CC(=O)Nc4cccc(F)c4)[nH]n3)ncnc2c1 [AZD2811] (first compound max 10 µM, 7x7, partner max 1 µM)", 0.872],
  ["CCN(CCO)CCCOc1ccc2c(Nc3cc(CC(=O)Nc4cccc(F)c4)[nH]n3)ncnc2c1 [AZD2811] + C=CCn1c(=O)c2cnc(Nc3ccc(N4CCN(C)CC4)cc3)nc2n1-c1cccc(C(C)(C)O)n1 [AZD1775] (first compound max 1 µM, partner max 1 µM)", 0.989],
  ["CC1(C)CCC(CN2CCN(c3ccc(C(=O)NS(=O)(=O)c4ccc(NCC5CCOCC5)c([N+](=O)[O-])c4)c(Oc4cnc5[nH]ccc5c4)c3)CC2)=C(c2ccc(Cl)cc2)C1 [Venetoclax] + CS(=O)(=O)CCNCc1ccc(-c2ccc3ncnc(Nc4ccc(OCc5cccc(F)c5)c(Cl)c4)c3c2)o1 [Lapatinib] (first compound max 1 µM, 7x7, partner max 10 µM)", 0.904]
]}

Reported combination Emax (BC-1 (B-Cell Non-Hodgkin's Lymphoma)) for entry CCc1c2c(nc3ccc(O)cc13)-c1cc3c(c(=O)n1C2)COC(=O)[C@]3(O)CC [SN-38] + O=C(c1cc(Cc2n[nH]c(=O)c3ccccc23)ccc1F)N1CCN(C(=O)C2CC2)CC1 [Olaparib] (first compound max 0.3 µM, 7x7, partner max 10 µM) is 1

combination Emax on BC-1 (B-Cell Non-Hodgkin's Lymphoma) for N#Cc1cnc(Nc2cc(NC[C@H]3CNCCO3)c(C(F)(F)F)cn2)cn1 [SRA737] + CCc1c2c(nc3ccc(O)cc13)-c1cc3c(c(=O)n1C2)COC(=O)[C@]3(O)CC [SN-38] (first compound max 10 µM, 7x7, partner max 0.3 µM) is 0.952

---

system: TK (B-Cell Non-Hodgkin's Lymphoma); assay: Bliss excess, mean over the matrix (fraction); higher = more synergy
Returns Y if the recorded Bliss excess is greater than or equal to -0.02, and N otherwise.

Below, 3 molecules whose answers are already recorded.
{"columns": ["molecule", "category"],
 "data": [
  ["NC1(C(=O)N[C@@H](CCO)c2ccc(Cl)cc2)CCN(c2ncnc3[nH]ccc23)CC1 [Capivasertib] + CC(=O)c1c(C)c2cnc(Nc3ccc(N4CCNCC4)cn3)nc2n(C2CCCC2)c1=O [Palbociclib] (first compound max 10 µM, 7x7, partner max 10 µM)", "N"],
  ["C[C@@H](c1ccc2nccn2c1)n1nnc2ncc(-c3cnn(C)c3)nc21 [Savolitinib] + CC1(C)CCC(CN2CCN(c3ccc(C(=O)NS(=O)(=O)c4ccc(NCC5CCOCC5)c([N+](=O)[O-])c4)c(Oc4cnc5[nH]ccc5c4)c3)CC2)=C(c2ccc(Cl)cc2)C1 [Venetoclax] (first compound max 1 µM, 7x7, partner max 1 µM)", "N"],
  ["CC1(C)CCC(CN2CCN(c3ccc(C(=O)NS(=O)(=O)c4ccc(NCC5CCOCC5)c([N+](=O)[O-])c4)c(Oc4cnc5[nH]ccc5c4)c3)CC2)=C(c2ccc(Cl)cc2)C1 [Venetoclax] + CCN(CCO)CCCOc1ccc2c(Nc3cc(CC(=O)Nc4cccc(F)c4)[nH]n3)ncnc2c1 [AZD2811] (first compound max 1 µM, 7x7, partner max 1 µM)", "Y"]
]}

Input line: Does the molecule Cc1cc2ncnn2cc1Nc1ncc2c(n1)n(C1CCOCC1)c(=O)n2C [AZD7648] + C=CCn1c(=O)c2cnc(Nc3ccc(N4CCN(C)CC4)cc3)nc2n1-c1cccc(C(C)(C)O)n1 [AZD1775] (first compound max 10 µM, partner max 1 µM) have recorded Bliss excess that is -0.02 or more?
Output line: N

Input line: Bliss excess >= -0.02 for COc1cccc(OCCCN)c1-c1cc(Nc2cnc(C#N)cn2)n[nH]1 [Prexasertib] + C=CCn1c(=O)c2cnc(Nc3ccc(N4CCN(C)CC4)cc3)nc2n1-c1cccc(C(C)(C)O)n1 [AZD1775] (first compound max 1 µM, partner max 1 µM) ?
Output line: N

Input line: Is reported Bliss excess greater than or equal to -0.02 here: CC1(C)CCC(CN2CCN(c3ccc(C(=O)NS(=O)(=O)c4ccc(NCC5CCOCC5)c([N+](=O)[O-])c4)c(Oc4cnc5[nH]ccc5c4)c3)CC2)=C(c2ccc(Cl)cc2)C1 [Venetoclax] + COc1cc(Nc2ncc3c(n2)-c2ccc(Cl)cc2C(c2c(F)cccc2OC)=NC3)ccc1C(=O)O [Alisertib] (first compound max 1 µM, 7x7, partner max 10 µM)
Output line: Y

Input line: In plain terms: is recorded Bliss excess at least -0.02 for CCc1c2c(nc3ccc(O)cc13)-c1cc3c(c(=O)n1C2)COC(=O)[C@]3(O)CC [SN-38] + CN(C)CCCOc1ccc(-c2ccc3ncc4c(c3c2)n(C2CCOCC2)c(=O)n4C)cn1 [AZD0156] (first compound max 0.3 µM, 7x7, partner max 1 µM) ?
Output line: Y

---

// values below are reported combination Emax
test system: NCI-H2023 (Non-Small Cell Lung Carcinoma); assay: combination Emax (second highest fraction inhibited in the dose matrix, 72 h); higher = more inhibition; extreme values may be limits of the assay
Number only, no unit.

Below are worked cases with known answers.
{"columns": ["molecule", "combination Emax"],
 "data": [
  ["Cc1cc2ncnn2cc1Nc1ncc2c(n1)n(C1CCOCC1)c(=O)n2C [AZD7648] + CCN(CCO)CCCOc1ccc2c(Nc3cc(CC(=O)Nc4cccc(F)c4)[nH]n3)ncnc2c1 [AZD2811] (first compound max 10 µM, 7x7, partner max 1 µM)", 0.534],
  ["CN(CCO)CC[C@H](CSc1ccccc1)Nc1ccc(S(=O)(=O)NC(=O)c2ccc(N3CCC([C@@H](O)c4ccccc4-c4ccc(Cl)cc4)CC3)cc2)cc1S(=O)(=O)C(F)(F)F [AZD4320] + Nc1ccn([C@@H]2O[C@H](CO)[C@@H](O)C2(F)F)c(=O)n1 [Gemcitabine] (first compound max 1 µM, 7x7, partner max 0.3 µM)", 0.884],
  ["CS(=O)(=O)CCNCc1ccc(-c2ccc3ncnc(Nc4ccc(OCc5cccc(F)c5)c(Cl)c4)c3c2)o1 [Lapatinib] + C[C@@H](Oc1cc(-c2cnn(C3CCNCC3)c2)cnc1N)c1c(Cl)ccc(F)c1Cl [Crizotinib] (first compound max 10 µM, 7x7, partner max 10 µM)", 0.687],
  ["CCc1c2c(nc3ccc(O)cc13)-c1cc3c(c(=O)n1C2)COC(=O)[C@]3(O)CC [SN-38] + O=C(c1cc(Cc2n[nH]c(=O)c3ccccc23)ccc1F)N1CCN(C(=O)C2CC2)CC1 [Olaparib] (first compound max 0.3 µM, 7x7, partner max 10 µM)", 0.857],
  ["Cc1c2c(nn1C)CSCc1cc(n(C)n1)CSc1cc(c3ccccc3c1)OCCCc1c(C(=O)O)n(C)c3c-2c(Cl)ccc13 [AZD5991] + CN(C)CCCOc1ccc(-c2ccc3ncc4c(c3c2)n(C2CCOCC2)c(=O)n4C)cn1 [AZD0156] (first compound max 1 µM, 7x7, partner max 1 µM)", 0.426]
]}

Lab book: combination Emax of C[C@@H](c1ccc2nccn2c1)n1nnc2ncc(-c3cnn(C)c3)nc21 [Savolitinib] + CC1(C)CCC(CN2CCN(c3ccc(C(=O)NS(=O)(=O)c4ccc(NCC5CCOCC5)c([N+](=O)[O-])c4)c(Oc4cnc5[nH]ccc5c4)c3)CC2)=C(c2ccc(Cl)cc2)C1 [Venetoclax] (first compound max 1 µM, 7x7, partner max 1 µM) noted as 0.261

So, CN(CCO)CC[C@H](CSc1ccccc1)Nc1ccc(S(=O)(=O)NC(=O)c2ccc(N3CCC([C@@H](O)c4ccccc4-c4ccc(Cl)cc4)CC3)cc2)cc1S(=O)(=O)C(F)(F)F [AZD4320] + Cc1cc2ncnn2cc1Nc1ncc2c(n1)n(C1CCOCC1)c(=O)n2C [AZD7648] (first compound max 1 µM, 7x7, partner max 10 µM) ? Its combination Emax was 0.318
